- assayName: Restrictive medium S. cerevisiae growth inhibition, OD615, pilot screen of yeast lifespan reduction project, restrictive growth control (AID 706);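 note: modified DeaD lifespan yeast strain shifted to restrictive glucose medium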
- conditionsUsed: OD615, 48 h, at 10 µM, active compounds read high

molecule	growth inhibition [%]
Cn1c(NC(=O)c2cccc(C(F)(F)F)c2)cc(=O)n(C)c1=O	-5.14
O=C(O)CCc1ccc(-c2cccs2)n1-c1ccc(C(=O)O)cc1	3.42
CC1=C(C(=O)OCC(C)C)C(c2ccccc2Cl)NC(=O)N1C (stereo not given)	-8.57
Cc1ccc(-c2csc(N3CCC(C(N)=O)(N4CCCCC4)CC3)n2)cc1	-8.75
COc1ccc(-c2c(C)oc3c(CN4CCCCC4C)c(O)ccc3c2=O)cc1OC (stereo not given)	-7.48
Cc1ccc(NC(=O)C2CCCN2S(=O)(=O)c2ccc3c(c2)CCC(=O)N3)cc1Cl (stereo not given)	8.74
Cc1c(C(=O)NCc2ccc3c(c2)OCO3)oc2ccccc12	16
Cn1c(SCC(=O)NCC2CCCO2)nc2c([nH]c3ccccc32)c1=O (stereo not given)	-9.87
Cc1cccc(-c2nc(CS(=O)CC(=O)N3CCc4ccccc4C3)c(C)o2)c1 (stereo not given)	20.1
O=C(Cn1c2c(c(-c3ccccc3)cc1=O)CCCC2)N1CCCCCC1	-10.3

###

Measured viability by item
- assayName: growth suppression of beta-catenin knockout HCT116, pilot screen, human colon tumor cells (AID 823);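 note: 0% = wells killed by 20 µM Hyamine and 100% = untreated DMSO cell wells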
- conditionsUsed: CellTiter-Glo, 60 h, at 10 µM, active compounds read low
Records with an inconclusive call do not appear.
reportedMetric: viability (%)

molecule	unitAnnotation	valueReported
Cn1nc(-c2ccc(Cl)cc2)c2cc(C(=O)N3CCN(c4ccccn4)CC3)sc21	%	37
CCc1ccc(N2CCN(C(=O)c3ccc(OC)c(OC)c3)CC2)cc1	%	57.3
CN(C)S(=O)(=O)Nc1ccc2c(c1)Cc1ccccc1-2	%	92.3
CCn1cc(C(=O)OCC(=O)Nc2c(C)n(C)n(-c3ccccc3)c2=O)c(=O)c2ccc(C)nc21	%	97.6
CCC(C)OC(=O)C1=C(C)NC(=O)NC1c1ccc(F)cc1 (stereo not given)	%	97

###

Measured growth inhibition by item
- assayName: Restrictive medium S. cerevisiae growth inhibition, OD615, pilot screen of yeast lifespan reduction project, restrictive growth control (AID 706);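 note: modified DeaD lifespan yeast strain shifted to restrictive glucose medium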
- conditionsUsed: OD615, 48 h, at 10 µM, active compounds read high
reportedMetric: growth inhibition (%)

compound	valueReported
O=C(O)CSC1c2ccccc2C(=O)N1Cc1ccccc1 (stereo unspecified)	-2.05
CC(=O)c1ccc(OCC(O)Cn2nnc3ccccc32)cc1 (stereo unspecified)	-1.76
CCOC(=O)CSc1nc(C)cc(Oc2ccc(=O)n(C)n2)n1	-8.09
COc1ccc(N2C(=O)c3ccccc3NC23CCCCC3)cc1	-9.03
COC(=O)C1=C(C)N(C)C(C)=C(C(=O)OC)C1c1cccc(Br)c1	0.915
CN(C)CCNC(=O)c1cc2c(=O)n(C)c3ccccc3c2n1C	-1.67
Cc1sc2nc(SCC(=O)N(CCO)CCO)n(C3CCCCC3)c(=O)c2c1C	0.44
CCN(CC)C(=O)Nc1cnc2ccccc2c1	-8.12
Cc1nn(C(=O)CN2C(=O)c3ccccc3C2=O)c(C)c1Br	3.1
COc1ccc(OC)c(NC(=O)c2c(NC(=O)CNCc3ccco3)sc3c2CCC3)c1	-0.495
Cc1cc(Nc2ccc(C)c(C)c2)n2nc(C)nc2n1	10.1

###

Measured viability by item
- assayName: growth suppression of beta-catenin knockout HCT116, pilot screen, human colon tumor cells (AID 823);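 note: 0% = wells killed by 20 µM Hyamine and 100% = untreated DMSO cell wells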
- conditionsUsed: CellTiter-Glo, 60 h, at 10 µM, active compounds read low
Inconclusive results are not listed. Calls of active or inactive are those of the source.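 The calls were made as follows: active = cell viability at or below a set limit in both duplicate runs, the limit being the all-compound median minus 4 SD (cut at about 23% in these data, passing the limit was not always enough); inconclusive = no clear call, values can overlap the other calls; inactive = the rest.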

compound	viability
COc1ccc(Cc2nc(-c3cccs3)no2)cc1OC	76.8% (inactive)
CCC(C)NC(=O)C1CCN(C(=O)c2ccccc2)CC1 (stereo not drawn)	102% (inactive)
COC1=C(OC)c2ccccc2C(C(=O)O)N/C1=C(/C)Nc1ccncc1 (stereo not drawn)	94.7% (inactive)
CCN(CC)C(=O)CSc1ccccc1N	89.5% (inactive)
CC(C)NS(=O)(=O)c1ccc(CCC(=O)NCc2ccco2)cc1	93.1% (inactive)
C=C(C)Cn1c(SCC(=O)O)nc2c1c(=O)[nH]c(=O)n2C	96.7% (inactive)
COc1ccc(OC)c(NC(=O)CNC(=O)Cn2ccc3ccccc3c2=O)c1	104% (inactive)
COc1ccc(-c2c(C)oc3cc(O)cc(O)c3c2=O)cc1OC	109% (inactive)
Cc1ccc(-c2nc3cnccn3c2Nc2ccccc2)o1	91.2% (inactive)
COCCN1C(=O)C(CC(=O)Nc2ccc(C(=O)O)cc2)SC1=Nc1ccccc1 (stereo not drawn)	96.4% (inactive)
COc1ccc(NC(=O)C2CCN(S(=O)(=O)c3ccc(OC)c(OC)c3)CC2)c(OC)c1	94.7% (inactive)
Cn1c(=O)c2c(SCc3cccnc3)nc(CC(C)(C)C)nc2n(C)c1=O	87.2% (inactive)
COC(=O)c1c(NC(=O)CCN2CCOCC2)sc2c1CCCC2	88.4% (inactive)
CCc1ccccc1N1CC23C=CC(O2)C(C(=O)OC)C3C1=O (stereo not drawn)	92.7% (inactive)
CN1CCN(c2ccccc2NC(=O)Cc2cn(C)c3ccccc23)CC1	92.8% (inactive)
CCOC(=O)Cn1c(C)nc2ccccc21	102% (inactive)
COc1ccc(N=C(C)C2=C(O)COC2=O)cc1	97.6% (inactive)
Cc1cc2nsnc2c(S(=O)(=O)NCC(=O)O)c1C	100% (inactive)
COc1ccc(CN=CC2=C(O)CNC2=O)cc1OC	99.8% (inactive)
O=C(O)CC(Cn1cnnn1)c1ccccc1 (stereo not drawn)	103% (inactive)
O=C(Cn1ncc2c1-c1ccccc1OC2)Nc1ccc(S(=O)(=O)N2CCCCC2)cc1	90.7% (inactive)
COCCNC(=O)Cn1cc2c(n1)CCC(C)C2 (stereo not drawn)	104% (inactive)
CCCc1cc(C(=O)NC2CCCC2)no1	103% (inactive)
O=C(CCCOc1ccccc1)Nc1cccc(C(=O)O)c1	96% (inactive)
Cc1nc(-c2ccc3c(c2)OCO3)cs1	102% (inactive)
COCCN1Cc2cccc(C(=O)NCc3cccnc3)c2C1=O	111% (inactive)
C=CCn1c(=O)/c(=C/c2cc(OC)c(OC)c(OC)c2)s/c1=C(/C#N)c1nc2ccccc2n1C	46.3% (inactive)
COc1ccc(CC(=O)Nc2oc(-c3ccccc3)c(-c3ccccc3)c2C#N)cc1OC	76.9% (inactive)
CC(=O)Nc1ccc(NC(=O)CCC(=O)NCCO)cc1	90.8% (inactive)
CCc1ccccc1NC(=O)c1onc(C)c1Cl	108% (inactive)
Cc1ccc(CCNC(=O)C2CCCN(S(=O)(=O)c3c(C)noc3/C=C/N(C)C)C2)cc1 (stereo not drawn)	88.1% (inactive)
CCCCCOC(=O)C1=C(C)NC(=O)NC1c1ccccc1OCC (stereo not drawn)	69.8% (inactive)
CCOC(=O)Cn1nc(C)c(-c2ccccc2)c1N	97.4% (inactive)
O=C(O)CSC1c2ccccc2C(=O)N1Cc1ccccc1 (stereo not drawn)	94.4% (inactive)
Cc1nc(N2CCN(C(=O)c3ccco3)CC2)c2c3c(sc2n1)CCC3	79.8% (inactive)
Nc1nonc1/C(=N/O)N1CCN(CCO)CC1	104% (inactive)
c1ccc(Cn2nnc3c(N4CCOCC4)ncnc32)cc1	92.7% (inactive)
Cc1nn2c(=O)cc(CSc3nc4ccccc4[nH]3)nc2s1	103% (inactive)
COCC(C)NC(=O)NC1(C(F)(F)F)Oc2ccc(Cl)cc2O1 (stereo not drawn)	32.7% (inactive)
CCOC(=O)CCSCC(=O)Nc1nnc(C)s1	113% (inactive)
CCN1CCCC1CNC(=O)c1cc2c(-c3ccc(Cl)cc3)nn(C)c2s1 (stereo not drawn)	2.03% (active)
COc1ccc(Cn2c(=O)[nH]c3cc(C(=O)NCCCN4CCCCC4)ccc3c2=O)cc1	74.5% (inactive)
COc1ccc(S(=O)(=O)NCC2CCC(C(=O)N3CCC4(CC3)OCCO4)CC2)cc1 (stereo not drawn)	94.2% (inactive)
Cc1ccc(S(=O)(=O)Cc2ccc(C(=O)N3CCCC3)o2)cc1	99.2% (inactive)
O=C(NC1CCCCC1)c1ccc(Br)o1	102% (inactive)
CCOC(=O)c1ccc2nc(NC(=O)C(C)C)sc2c1	78.6% (inactive)
Cc1ccc(C)c(N(C)S(=O)(=O)c2cccc3nsnc23)c1	79.5% (inactive)
COCCNS(=O)(=O)c1cccc2cccnc12	97.8% (inactive)

###

- assayName: viability gain of MRP-1-high H69AR cells under doxorubicin, pilot screen, MRP-1 activator project, CellTiter-Glo, duplicate (AID 807);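 note: compound pretreatment 18-22 h then 72 h combined with doxorubicin; 0% = doxorubicin alone and 100% = vehicle without doxorubicin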
- conditionsUsed: H69AR viability with doxorubicin, CellTiter-Glo luminescence; at 10 µM; active compounds read high
Measured viability increase by item

compound	viability increase / %
CCN(CC)S(=O)(=O)c1ccc(NC2c3ccccc3C(=O)N2Cc2ccc3c(c2)OCO3)cc1 (configuration not stated)	-2.84
Cc1cc(NC(=O)C2CC(c3ccc(F)cc3)=NO2)n(-c2ccccc2)n1 (configuration not stated)	0.96
COc1ccc(OCC(=O)Nc2ccccc2OC)cc1	-4.87
CC1(C)CC(N2CCN(c3ccccc3)CC2)=CC(=[N+]2CCCC2)C1	-3.22
COc1ccc(OC)c2sc(NC(=O)C3CC3)nc12	-3.24
CN1CCN(C(=O)c2cc3c(s2)-c2ccccc2S(=O)(=O)C3)CC1	-1.76
COc1ccc(C(=O)NCC(c2cccnc2)N2CCN(c3ccccc3)CC2)cc1OC (configuration not stated)	-2.1
O=c1[nH]c2ccccc2n1Cc1ccc(F)cc1	1.93
CCOC(=O)C(C)c1nn(C)c(=O)c2ccccc12 (configuration not stated)	-2.34
Cc1ccc(OCCCN(C)C)c(Br)c1	-1.22
C/C(=C\C(=O)c1ccc(C)cc1)Nc1cccc(O)c1	-4.74
Cc1cc(C)c(C#N)c(SCC(=O)c2cccs2)n1	-4.41

src = PubChem BioAssay
